- target: recombinant human Syk (GST-hSyk fusion protein) (Homo sapiens, UniProt P43405)
- Construct: purchased Carna Biosciences 08-176
- protocol.details: Homogeneous Time-Resolved Fluorescence (HTRF) assay for the recombinant human Syk enzyme
- Format: biochemical
- settings: 10-dose titration, 25 μM ATP; read-out: rhSYK IC50
- Experimental: Syk inhibition may be determined using the following assay protocol: Homogeneous Time-Resolved Fluorescence (HTRF) Assay for the Recombinant Human Syk Enzyme: A recombinant GST-hSyk fusion protein was used to measure potency of compounds to inhibit human Syk activity. […] The resulting HTRF signal was measured after 30 minutes on an EnVision (Perkin-Elmer) reader using a time-resolved fluorescence protocol. […]
readout.label: IC50 (nM)

1: Cc1cc(Nc2nccc(C(F)(F)F)n2)cc(-n2cc(CCC(=O)O)cn2)c1 [Example 19.1]
2: Cc1cc(Nc2nccc(C3CC3)n2)cc(-c2cnn(C[C@@H](O)C(=O)O)c2)c1 [Example 11.1]
3: Cc1cc(Nc2nccc(C(F)(F)F)n2)cc(-c2cnn(C(C)(C)CC#N)c2)c1 [Example 9.1]
4: Cc1cc(Nc2nccc(C(F)F)n2)cc(-c2cnn(C3CCCCC(O)C3O)c2)c1 (stereo not shown) [Example 22.15]
Challenge: List these items ordered by IC50, big to small. // format: requested-order list of labels
Response given: 1, 3, 2, 4

###

- target: recombinant human Syk (GST-hSyk fusion protein) (Homo sapiens, UniProt P43405)
- Construct: purchased Carna Biosciences 08-176
- protocol.details: Homogeneous Time-Resolved Fluorescence (HTRF) assay for the recombinant human Syk enzyme
- Assay type: biochemical
- settings: IC50 class; 10-dose titration, 25 μM ATP; read-out: rhSYK Activity
readout.label: IC50

Observe how each entry below is paired with its result.
compound: Cc1cc(Nc2nccc(OC(C)C)n2)cc(-c2cnn(C[C@H](O)C(N)=O)c2)c1
IC50: ≤ 100 nM
//
compound: Cc1cc(Nc2nccc(C(F)(F)F)n2)cc(-c2cnn(CC(C)(O)C(N)=O)c2)c1 (single isomer, unassigned) [Example 8.15]
IC50: ≤ 100 nM
//
compound: Cc1cc(Nc2nccc(C(F)(F)F)n2)cc(-c2cnn([C@@H](C)[C@](C)(O)CO)c2)c1 (single isomer, unassigned)
IC50: ≤ 100 nM
//
compound: Cc1cc(Nc2nccc(C(F)(F)F)n2)cc(-c2cnn(CCC3CCCN3)c2)c1 (stereo not shown)
IC50: ≤ 100 nM
//
compound: Cc1cc(Nc2nccc(C(F)(F)F)n2)cc(-c2cnn(CCS(N)(=O)=O)c2)c1
IC50: ≤ 100 nM

Challenge: Could you share which IC50 value was measured for Cc1cc(Nc2nccc(C)n2)cc(-c2cnn(C3CCCC(O)C3O)c2)c1 (stereo not shown) [Example 10.10] ?
Response given: ≤ 100 nM

Challenge: So what's the measured IC50 for this one? Cc1ccnc(Nc2cccc(-c3cnn(CC4CNC(=O)O4)c3)c2)n1 (stereo not shown) [Example 2.20]
Response given: ≤ 100 nM

Challenge: Quick one: IC50 for CC(=O)C(C)n1cc(-c2cc(C)cc(Nc3nccc(C(F)F)n3)c2)cn1 (stereo not shown) [Example 21.3] ?
Response given: ≤ 100 nM

Challenge: May I ask what IC50 has been recorded for Cc1cc(Nc2nccc(C(F)(F)F)n2)cc(-c2cnn(CCC(=O)O)c2)c1 ?
Response given: ≤ 100 nM

Challenge: So what's the measured IC50 for this one? Cc1cc(Nc2cc(C)c(Cl)cn2)nc(-c2cnn(CCC(=O)O)c2)c1
Response given: 100 to 1000 nM

Challenge: Which IC50 value is on record for Cc1cc(Nc2nccc(C(F)F)n2)cc(-c2cnn(CC3CC(=O)NC3C)c2)c1 (stereo not shown) [Example 2.79] ?
Response given: ≤ 100 nM

Challenge: Please give the measured IC50 for this compound: Cc1cc(Nc2nccc(C(F)(F)F)n2)cc(-c2cnn(CC3OC(=O)NC3(C)C)c2)c1 (stereo not shown) [Example 3.99]
Response given: ≤ 100 nM

Recorded values, source patent US9242984B2.
